- Tested on: ICR mice
- assay explanation: Morris water maze test, scopolamine-induced cognitive impairment; note: test concentration or dose not given here
- assay conditions: learning and training; Day 9; oral, plus scopolamine; ICR mice
Measured Latency to target (second), Day 9 by item
Kindly answer with a numeric value in s, unit omitted.

Examples from the recorded data:
Enter reported Latency to target (second), Day 9 observed with ICR mice for O=C(/C=C/c1ccc([N+](=O)[O-])cc1)NCCCCCCNc1c2c(nc3ccccc13)CCCC2 [Compound 19]
26.1

Enter reported Latency to target (second), Day 9 observed with ICR mice for Nc1c2c(nc3ccccc13)CCCC2 [Tacrine, reference compound]
38.2

Enter reported Latency to target (second), Day 9 observed with ICR mice for O=C(/C=C/c1ccc(Cl)cc1)NCCCCCCNc1c2c(nc3ccccc13)CCCC2 [Compound 27]
28.3

Now consider the entry below.
Enter reported Latency to target (second), Day 9 observed with ICR mice for COc1ccc(/C=C/C(=O)NCCCCCCNc2c3c(nc4ccccc24)CCCC3)cc1 [Compound 30]
33.2
